Species: Homo sapiens
procedure-summary: Selectivity for 5HT7 receptor over dopamine D2 receptor
readout-kind: Ratio Ki

> print(dat)
                                    compound  readout.kind  inequality.sign  recorded.number
 1  COc1ccc2[nH]c3c(c2c1)CCN=C3c1cc([N+](=O)[O-])cn1C      Ratio Ki                =               26
 2  CC(=O)OC1CCc2ccc(/N=C/N3CCc4ccccc4C3)cc21 (centres undefined)      Ratio Ki                =               17
 3  COc1cc2c(cc1OC)CN(/C=N/c1ccc3c(c1)N(C(=O)OC(C)(C)C)CC3)CC2      Ratio Ki                =               24
 4  CC(=O)OC1CCCc2ccc(/N=C/N3CCc4ccccc4C3)cc21 (centres undefined)      Ratio Ki                =               12
 5  CC(=O)OC1CCc2ccc(/N=C/N(C)Cc3ccccc3)cc21 (centres undefined)      Ratio Ki                =               16
 6  COc1cccc(CC2NCCc3c2[nH]c2ccc(OC)cc32)c1 (centres undefined)      Ratio Ki                =               33
 7  CCCCSC1=CCc2ccc(/N=C/N3CCc4cc(OC)c(OC)cc4C3)cc21      Ratio Ki                <             0.03
 8       COc1cccc(C2=NCCc3c2[nH]c2ccccc32)c1      Ratio Ki                =               39
 9  COc1cc2c(cc1OC)CN(/C=N/c1ccc3c(c1)C1SCCSC1C3)CC2 (centres undefined)      Ratio Ki                >              500
10  CCCOC1CCCc2ccc(/N=C/N3CCc4cc(OC)c(OC)cc4C3)cc21 (centres undefined)      Ratio Ki                =                8
11  c1ccc(C2NCCc3c2[nH]c2ccccc32)cc1 (centres undefined)      Ratio Ki                >                3
12  COc1cc2c(cc1OC)CN(/C=N/c1ccc3c(c1)C(OC(C)=O)CCC3)CC2 (centres undefined)      Ratio Ki                =               28
13  OC1CCc2ccc(/N=C/N3CCc4ccccc4C3)cc21 (centres undefined)      Ratio Ki                >              111
14  COC(=O)N1CCc2ccc(/N=C/N3CCc4cc(OC)c(OC)cc4C3)cc21      Ratio Ki                =              0.6
